# target: amyloid plaques (Homo sapiens, UniProt P05067)
# Sequence (P05067 672-713 limits assumed): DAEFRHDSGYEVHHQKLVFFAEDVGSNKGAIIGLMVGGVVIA
measurement_label: pIC50
Answers are plain numbers, as −log10 of the molar value.

Query: Provide one value: measured pIC50 of CNc1ccc(N=Nc2ccc(N(C)C)cc2)cc1
Response: 7.89

Origin of measurements: patent US9180212B2
